Biological target: AMPK
Experiment: AMPK activation, enzyme-linked immunosorbent assay
Format: biochemical
Details: Table 8, compounds of Table 1
pEC50: −log10 of the molar value.
propertyLabel: pEC50

Lab book: pEC50 of N#Cc1ccc(N2CCC(Oc3ccc(S(=O)(=O)NC4CCN(Cc5ccncc5)CC4)cn3)CC2)cc1 noted as 6.30 to 7.00

Next:
Lab book: pEC50 of O=C(NC1CCNCC1)c1cc2cc(OC3CCN(c4ccc(C(F)(F)F)cc4)CC3)ccc2o1 noted as < 5.00

Lab book: pEC50 of O=C(N[C@@H]1CCNC1)c1ccc(OC2CCN(c3ccc(C(F)(F)F)cc3)CC2)cn1 noted as 5.00 to 5.30

All figures here come from patent US9409884B2.
